Provide the reported z-score of each item.
- Protocol Text: S. pombe growth modifiers, basal conditions – strain 972, OD600, 24 h, no modulator, primary screen (AID 1090);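 note: basal condition with compound alone and no growth modifier present; test concentration not given here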
- Recorded Conditions: S. pombe 972 growth, higher = more signal, called active from +8 up or from −8 down
Answers are plain numbers.

Use the examples below as a reference point.
{"Molecule": "O=C1C=C(c2ccccc2)C(=O)C2=C1CC([C@H]1Oc3ccccc3S(=O)(=O)N3CCC[C@@H]13)=CC2", "Result Value": -3.32}
{"Molecule": "COC(=O)C1=CC(CCCO)=CC(c2cccs2)N(Cc2cc3c(cc2Br)OCO3)C=C1C(=O)OC (stereo not given)", "Result Value": -0.997}
{"Molecule": "Cc1ccc(S[C@]2(C(=O)NC3CC3)CC(=O)N(C(C)C)[C@@H]2c2ccc(CO)cc2I)cc1", "Result Value": -2.43}
{"Molecule": "O=C1C[C@@](C(=O)NCc2ccccc2)(c2ccc([N+](=O)[O-])cc2)[C@@H](c2ccc(CO)cc2)N1C1CCCCC1", "Result Value": -0.221}
{"Molecule": "COC(=O)[C@@]1(Cc2ccc(F)cc2)[C@H]2c3cc(C(=O)N4CCCC4)n(Cc4cc(F)cc5c4OCOC5)c3C[C@H]2CN1C(=O)c1ccccc1", "Result Value": 1.57}
{"Molecule": "COC(=O)C[C@H]1O[C@@]2(C[C@@H]1[Si](C)(C)C)C(=O)N(C)c1ccccc12", "Result Value": -2.4}
{"Molecule": "COc1cc(CO)cc(I)c1O[C@H]1C=C(C(=O)NCCO)C[C@@H]2O[C@H]12", "Result Value": -6.47}
{"Molecule": "COCCCNC(=O)[C@@]1(Sc2ccc(C)cc2)CC(=O)N(Cc2ccccc2C(F)(F)F)[C@@H]1c1ccc(CO)cc1I", "Result Value": -1.05}
{"Molecule": "CN(C)CCCC[C@@H]1NC(=O)[C@@H]2C[C@H](C(=O)NCCCCCN)[C@H](c3cccc(OCCO)c3)N2C1=O", "Result Value": -3.9}
{"Molecule": "[N-]=[N+]=Nc1ccccc1C[C@@]1(C(=O)NCC(O)CO)N=C(c2ccc(OCCCO)cc2)O[C@@H]1c1ccccc1 (stereo not given in full)", "Result Value": -1.09}

Hello, I would appreciate it if you could give z-score for each entry below.
1. N#Cc1ccc(C(O)C2C=CC3C(=O)NC(=O)C3N2Nc2ccc(Cl)cc2Cl)cc1 (stereo not given)
2. O=C1C[C@@](C(=O)O)(c2ccc([N+](=O)[O-])cc2)[C@@H](c2ccc(CO)cc2)N1C1CCCCC1
3. O=C1O[C@@H](c2ccccc2)[C@@H](c2ccccc2)N2[C@@H](c3ccc(OCCO)cc3)[C@]3(C(=O)Nc4ccc(C#CC5(O)CCCCCC5)cc43)[C@@H](C(=O)Nc3nc4ccccc4s3)[C@H]12

Solution:
1. -0.615
2. -1.36
3. 1.19

For each of the molecules below, state z-score.
1. COCCCNC(=O)[C@@]1(CCS(=O)(=O)c2ccccc2)COC(c2ccc(OCCCO)cc2)=N1
2. COCCOC(=O)N1C(=O)[C@@]2(c3cc(C#CCC(C(=O)OC)C(=O)OC)ccc31)[C@H](C(=O)Nc1nc3ccccc3s1)[C@H]1C(=O)O[C@H](c3ccccc3)[C@H](c3ccccc3)N1[C@@H]2c1ccc(O)cc1

Solution:
1: -0.0454; 2: 0.431

---

- Assay System: NADPH oxidase 2 (Homo sapiens) (UniProt P04839)
- Sequence (P04839 whole entry, looked up): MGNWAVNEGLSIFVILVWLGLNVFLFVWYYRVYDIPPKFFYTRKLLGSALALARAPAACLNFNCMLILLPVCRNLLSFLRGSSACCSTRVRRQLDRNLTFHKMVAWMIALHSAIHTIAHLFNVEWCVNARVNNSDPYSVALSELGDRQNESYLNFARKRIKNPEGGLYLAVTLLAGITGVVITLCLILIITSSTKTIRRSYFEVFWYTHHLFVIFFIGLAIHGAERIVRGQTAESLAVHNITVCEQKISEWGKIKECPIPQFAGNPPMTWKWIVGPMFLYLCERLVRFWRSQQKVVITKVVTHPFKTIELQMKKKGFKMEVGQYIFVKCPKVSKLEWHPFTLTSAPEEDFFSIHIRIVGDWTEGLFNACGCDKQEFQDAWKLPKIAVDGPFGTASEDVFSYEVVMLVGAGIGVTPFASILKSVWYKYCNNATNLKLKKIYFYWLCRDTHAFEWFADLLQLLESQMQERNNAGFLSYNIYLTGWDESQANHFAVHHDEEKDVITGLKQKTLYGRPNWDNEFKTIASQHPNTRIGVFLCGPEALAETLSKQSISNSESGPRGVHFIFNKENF
- Protocol Text: compounds shifting NOX2 Amplex Red fluorescence – cell-based, HEK293-NOX2, PMA-stimulated, NOX inhibitor project, primary screen (AID 1159); note: test concentration not given here
- Recorded Conditions: 45 min, higher = more signal, called active from +8 up or from −8 down
Endpoint Label: z-score
One number for each entry.

Here are 3 compounds together with their reported answers.
{"Molecular String": "Cc1ccc(N2C(=O)c3ccccc3[C@](C)(C(=O)NCCCN(C)C)[C@@H]2c2ccc(CO)cc2)nc1", "z-score": 0.627}
{"Molecular String": "COC(=O)[C@@]1(Cc2ccc(OC)cc2)[C@H]2c3cc(C(=O)N(C)C)[nH]c3C[C@H]2CN1C(=O)c1ccccc1", "z-score": 0.371}
{"Molecular String": "COc1ccc(CCNC(=O)[C@@H]2c3ccccc3C(=O)N(Cc3ccccc3OC)[C@H]2c2ccc(CO)cc2)cc1", "z-score": -1.31}

From here, focus on the item given below.
Problem: # return recorded z-score for entry `O=C(NC1CC1)[C@@H]1c2ccccc2C(=O)N(Cc2cc(C(F)(F)F)cc(C(F)(F)F)c2)[C@H]1c1ccc(CO)cc1`
Solution: -0.397

---

- Protocol Text: inhibition of PAO1 biofilm formation – strain PAO1, LB-PBS medium, absorbance 600 nm, primary screen (AID 1176); note: test concentration not given here
- Recorded Conditions: P. aeruginosa PAO1 growth/biofilm, A600, 12 h; higher = more signal
Hi there, I'd appreciate the recorded z-score for every entry that follows.
Numbers only.

{"Molecule": "CCOC(=O)C1=CC[C@@H](c2ccc(OC)cc2)N(S(=O)(=O)c2ccc(C)cc2)[C@H]1c1ccc(C)cc1", "z-score": -0.0601}
{"Molecule": "COc1ccc(C(O)C2C=CC3C(=O)N(c4ccccc4)C(=O)C3N2Nc2ccc(C#N)cc2)cc1OCc1ccccc1 (stereo not given)", "z-score": 1.45}
{"Molecule": "O=C(O)[C@H](Cc1ccccc1)n1cc(C2(O)CCCCC2)nn1", "z-score": 0.055}
{"Molecule": "NC(=O)N1C(=O)C2C(C1=O)C1C=C(CCCO)C2C(C2CC2)N1Cc1sc2ccccc2c1Cl (stereo not given)", "z-score": -0.0099}
{"Molecule": "C=C(C)[C@@H]1CC=C(C(O)C2C=CC3C(=O)N(C)C(=O)C3N2Nc2ccc([N+](=O)[O-])cc2[N+](=O)[O-])CC1 (stereo not given in full)", "z-score": 0.599}
{"Molecule": "C=CC[C@@]1(C(=O)OC)N=C(c2ccc(OCCCO)cc2)O[C@@H]1c1ccccc1N=[N+]=[N-]", "z-score": -0.043}
{"Molecule": "COC(=O)[C@@]1(Cc2ccc(OC)cc2)[C@H]2c3cc(C(=O)N4CCCC4)n(CCn4cc([N+](=O)[O-])nc4C)c3C[C@H]2CN1C(=O)c1ccccc1", "z-score": 2.04}
{"Molecule": "COC(=O)[C@@]1(Cc2ccc(F)cc2)[C@H]2c3cc(C(=O)N(C)C)n(CCc4ccc(O)c(O)c4)c3C[C@H]2CN1C(=O)c1ccccc1", "z-score": -0.154}

Parameter requested: z-score. Apply to each item below.
1. O=C1O[C@H](c2ccccc2)[C@H](c2ccccc2)N2[C@H]1[C@@H](C(=O)O)[C@]1(C(=O)Nc3ccc(C#CCCO)cc31)[C@H]2c1ccc(OCCO)cc1
2. Cc1ccc(S[C@]2(C(=O)NCc3ccccc3)CC(=O)N(Cc3ccccc3C(F)(F)F)[C@@H]2c2ccc(CO)cc2)cc1
3. CCN(CC)c1ccc(N2CC=CC34O[C@@H]5C=CCCOC(=O)C5[C@H]3C(=O)N(C(C)CO)[C@@H]4C2=O)cc1 (stereo not given in full)
4. CC1CC/C=C\[C@H]2OC34C=CCN(c5ccc6ccccc6c5)C(=O)[C@H]3N(C(C)CO)C(=O)[C@@H]4C2C(=O)O1 (stereo not given in full)
5. CN(C)CCCCNC(=O)[C@H]1C[C@H]2C(=O)N3CCC[C@H]3C(=O)N2[C@H]1c1cccc(OCCO)c1
6. [N-]=[N+]=Nc1ccccc1[C@H]1OC(c2ccc(OCCCO)cc2)=N[C@@]1(Cc1ccccc1)C(=O)NCC(O)CO (stereo not given in full)
7. CC(C)(C)N1CC=CC23O[C@@H]4/C=C\CCCOC(=O)C4[C@H]2C(=O)N(CCCO)[C@@H]3C1=O (stereo not given in full)

Solution:
1. 0.967
2. 0.416
3. 0.398
4. -0.236
5. 0.202
6. -1.08
7. -0.236

---

Record form. Attribute: composite z-score. Fill in for each entry.
- System: Noggin (protein binding on small-molecule microarray)
- Protocol Text: small molecules binding Noggin protein – biochemical, 635/667 nm fluorescence, primary screen (AID 1095);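 note: score merges 667 nm feature fluorescence with signal to noise over triplicate slides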
- Recorded Conditions: 635 nm fluorescence, higher = more signal

Check out these entries, answers already filled in.
{"Compound": "CN1C(=O)[C@@H]2[C@@H](CC(COc3ccccc3)=C3[C@@H](CCc4ccccc4)OB(O)C[C@@H]32)C1=O", "composite z-score": 0.231}
{"Compound": "N#Cc1ccc(-c2cccc(=O)o2)cc1", "composite z-score": 0.671}
{"Compound": "COC(=O)[C@@]1(Cc2ccccc2)[C@H]2c3cc(C(=O)N(C)C)n(CCSC(=N)N)c3C[C@H]2CN1C(=O)c1ccccc1", "composite z-score": -0.699}

Parameters: items (list). Returns: composite z-score for each item.
1. O=C(NC1CC1)[C@@H]1c2ccccc2C(=O)N(Cc2cc(C(F)(F)F)cc(C(F)(F)F)c2)[C@H]1c1ccc(CO)cc1
2. COc1cc(C(O)C2C=CC3C(=O)N(c4ccccc4)C(=O)C3N2Nc2ccccc2F)cc(OC)c1OC (stereo not given)
3. CC(=O)OCC1C2CC[C@H]3C(OCc4ccc(F)cc4C(F)(F)F)OC[C@]4(C)[C@H]3C2=C(CN4C(=O)OC(C)(C)C)[C@H](C)C1COC(C)=O (stereo not given in full)
4. COc1ccc(C#Cc2ccc3c(c2)[C@]2(C(=O)N3)[C@H](C(=O)O)[C@H]3C(=O)O[C@H](c4ccccc4)[C@H](c4ccccc4)N3[C@@H]2c2ccccc2OCCO)cc1
5. CCCCN1CC=CC23O[C@@H]4/C=C\CCCOC(=O)C4[C@H]2C(=O)N(C(CO)C(C)C)[C@@H]3C1=O (stereo not given in full)
6. COC(=O)C(CC#Cc1ccc2c(c1)[C@]1(C(=O)N2)[C@H](C(=O)NC[C@H](O)c2ccccc2)[C@H]2C(=O)O[C@H](c3ccccc3)[C@H](c3ccccc3)N2[C@@H]1c1ccccc1OCCO)C(=O)OC
7. C[C@@H]1NC(=O)C([C@@H](C)OCc2ccccc2)NC(=O)[C@@]23C(=O)N[C@@H](Cc4ccccc4)C2[C@H](C)[C@@]2(C)O[C@H]2C3/C=C/C/C=C\CNC1=O (stereo not given in full)

Solution:
1: 0.76; 2: 0.334; 3: 1.2; 4: 0.597; 5: -0.21; 6: 0.8; 7: -0.0322
